# System: SW480
# Experiment description: Cytotoxicity against human SW480 cells after 72 hrs by CellTiter-Glo luminescent assay
# Assay type: functional, cell-based
# Run parameters: SW480, 72 h
pIC50: −log10 of the molar value.
Assay endpoint: pIC50

Value of pIC50 reported for the compound COc1ccc2c3c1C(=O)[C@H](O)C(C)(C)N3C(=O)[C@@]21C[C@]2([N+](=O)[O-])CN3C[C@@H]4O[C@@H]4[C@@H]3C[C@H]2C1(C)C is < 3.74

Entry CC1(C)[C@@H](O)C(=O)c2c(O)ccc3c2N1C(=O)[C@@]31C[C@]2([N+](=O)[O-])CN3C[C@@H]4O[C@@H]4[C@@H]3C[C@H]2C1(C)C , pIC50 reported as < 3.74

* * *

Field: IC50. Provide a value for each of the molecules that follow.
# Experiment description: Cytotoxicity against human MEC1 cells after 72 hrs by CellTiter-Glo luminescent assay
# Assay type: functional, cell-based
# Run parameters: MEC1, 72 h

So, COc1ccc2c3c1C(=O)[C@H](O)C(C)(C)N3C(=O)[C@@]21C[C@]2([N+](=O)[O-])CN3C[C@@H]4O[C@@H]4[C@@H]3C[C@H]2C1(C)C ? Its IC50 was > 180 µM

// IC50 lookup, molecule = CC1(C)[C@@H](O)C(=O)c2c(O)ccc3c2N1C(=O)[C@@]31C[C@]2([N+](=O)[O-])CN3C[C@@H]4O[C@@H]4[C@@H]3C[C@H]2C1(C)C , result: > 180 µM
